// data source = ChEMBL document CHEMBL4888484

The entries below come with measured IC50 values attached.
# Test system: Plasmodium falciparum
# protocol text: Hit confirmation in dose-response curve in NF54 pLDH assay, at 72h
# Assay type: functional, organism-based
# Design: timepoint 72 hour
# experimental context: NF54, Erythrocyte
property measured: IC50 (µM)

cpd smiles	property measured	operator symbol	measured result
COc1ccc(CC(=O)Nc2cc(C)n(-c3cccc(Cl)c3)n2)cc1	IC50	=	2.82
CCNc1ccnc(NCc2nc(-c3cccc(F)c3)c(-c3ccccn3)[nH]2)n1	IC50	=	5.75
COc1cccc(-c2nc(C)c(C(=O)Nc3n[nH]c(CC(C)C)n3)s2)c1	IC50	>	10
CCc1nc2cc(N3CCC(C(=O)Nc4ccc5c(c4)OCO5)CC3)cnc2nc1CC	IC50	>	10
Cc1cccc(CN2CCC[C@H](C(=O)c3ccc4c5c(cccc35)CC4)C2)n1	IC50	=	3.72
O=c1c2ccccc2nc2cc(-c3ccc(O)cc3)c(-c3ccccc3)nn12	IC50	>	10

----------
# Test system: Plasmodium falciparum
# protocol text: Hit confirmation in dose-response curve in NF54 pLDH assay, at 72h
# Type: functional, organism-based
# Design: timepoint 72 hour
# experimental context: NF54, Erythrocyte
pIC50: −log10 of the molar value.
property measured: pIC50

cpd smiles	target system	measured result
Cc1nc2cc(NC(=O)[C@@]3(C)CCCN(C(=O)c4ccccc4)C3)ccc2o1	Plasmodium falciparum	< 5.00
COc1ccc(CCNC(=O)c2cc3c(=O)[nH]c(C)cn3n2)cc1OC	Plasmodium falciparum	< 5.00
COc1ccc(-c2cc(-c3ccccc3)nc(N3CCC(C)CC3)n2)cc1	Plasmodium falciparum	< 5.00

----------
The entries below come with measured pIC50 values attached.
# Tested on: Plasmodium falciparum
# protocol text: Hit confirmation in dose-response curve in NF54 nanoGlo assay, at 72h
# Format: functional, organism-based, Erythrocyte
# Design: timepoint 72 hour
# experimental context: Plasmodium falciparum, NF54, Erythrocyte, 72 h
pIC50: −log10 of the molar value.

molecule	operator symbol	pIC50
CCC(C(=O)Nc1ccc2c(c1)CN(CCc1ccc(OC)c(OC)c1)C(=O)C(C)O2)c1ccccc1 (stereo unspecified)	=	6.54
Cc1[nH]c2ncnc(NC(=O)c3cccc(-n4ccnn4)c3)c2c1C	=	5.09
Cc1ccc(C2=C[C@@H](c3ccc(Cl)cc3)n3nc(NC(=O)c4ccccc4)nc3N2)cc1	=	5.76
COc1nc(-c2cccc(C(=O)N3C[C@@H]4CC[C@H](C3)C(=O)N4)c2)ncc1F	=	6.32
CNc1nc(Nc2ccc3c(c2)OCCO3)nc2ccccc12	=	6.07
Oc1cc(CC[C@H]2CCCCN2)cc(-c2cnc3ccccc3n2)c1	=	5.80
O=C(Nc1ccc(Cl)c(Cl)c1)Nc1ccc(Cl)cc1NC(=O)Nc1ccc(Cl)c(Cl)c1	=	5.69
Cc1cc[n+]2c(-c3ccccc3)cc(-c3ccccc3)nc2c1	=	5.82
CC(=O)c1cccc(NC(=O)[C@@]23CCC(=O)N2c2ccccc2C(=O)N3C)c1	=	5.72
COc1ccccc1C1c2[nH]c3ccccc3c2C[C@H]2C(=O)N(CC(O)c3ccccc3)CC(=O)N12 (stereo partly specified)	=	5.50
Cc1ccc2c(c1)c1c(n2S(=O)(=O)c2ccc(C(C)(C)C)cc2)CCCN(C)C1	=	5.83
Cc1c(-c2nn(-c3nc(C4CC4)cc(C(F)(F)F)n3)c(-c3cnn(C)c3C)c2Cl)cnn1C	=	5.96
Cc1c([C@@H](NCc2ncccc2O)C(C)C)oc2ccccc12	=	6.56
Cc1ccccc1C(=O)Cc1ncc[nH]1	=	5.64
CCOC1CC(NC2CC(c3ccc(F)cc3)C2)C12CCC2 (stereo unspecified)	=	5.30
Cn1nccc1/C=C1\CC2C3CCc4cc(O)ccc4C3CCC2(C)C1O (stereo unspecified)	<	5.00
